From: patent US20240083861A1

# systemTested: Recombinant human HSD17B13 enzyme (Homo sapiens, UniProt Q7Z5P4)
# Sequence (Q7Z5P4 20-300): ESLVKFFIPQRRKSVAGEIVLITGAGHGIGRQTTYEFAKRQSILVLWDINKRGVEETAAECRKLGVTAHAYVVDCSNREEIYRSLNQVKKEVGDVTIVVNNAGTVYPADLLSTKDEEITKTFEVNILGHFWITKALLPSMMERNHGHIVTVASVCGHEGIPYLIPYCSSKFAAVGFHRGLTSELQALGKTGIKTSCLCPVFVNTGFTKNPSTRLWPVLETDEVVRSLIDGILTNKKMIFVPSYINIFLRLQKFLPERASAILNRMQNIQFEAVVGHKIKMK
# testName: HSD17b13 NAD(P)H-Glo biochemical assay
# measurementParameters: 50 uM estradiol, 1 mM NAD+, NAD(P)H-Glo luminescence; read-out: HSD17β13 IC50
quantityName: IC50

Below, each entry is followed by its recorded IC50 result.
[[record]]
compound = "CN(c1cc2c(cn1)c(-c1cc(C(F)(F)F)c(F)c(O)c1F)nn2C)C1CCCOC1 (centres unmarked)"
result = "< 100 nM"

[[record]]
compound = "Cn1nc(-c2cc(C(F)(F)F)c(F)c(O)c2F)c2cnc(N3CCC(O)CC34CC4)cc21 (centres unmarked)"
result = "< 100 nM"

[[record]]
compound = "CCC1COCCN1c1cc2c(cn1)c(-c1cc(C(F)(F)F)c(F)c(O)c1F)nn2C (centres unmarked)"
result = "< 100 nM"

[[record]]
compound = "Cn1nc(-c2cc(C(F)(F)F)c(F)c(O)c2F)c2cnc(N3CCOC(c4cccnc4)C3)nc21 (centres unmarked)"
result = "< 100 nM"

[[record]]
compound = "Cn1nc(-c2cc(C(F)(F)F)c(F)c(O)c2F)c2cnc(N3CCN(S(C)(=O)=O)C(C)(C)C3)nc21"
result = "< 100 nM"


Input CN1CCN(c2ncc3c(-c4cc(C(F)(F)F)c(F)c(O)c4F)nn(C)c3n2)CC1c1ncc[nH]1 (centres unmarked) . Output IC50: 100 to 1000 nM

Input `CS(=O)(=O)NC1CN(C(=O)c2ccc3oc(-c4cc(O)c(F)c(F)c4)nc3c2)C1` . Output IC50: 100 to 1000 nM

Input `Cc1cc(-c2n[nH]c3cc(C4CCN(S(C)(=O)=O)CC4)ccc23)c(F)c(O)c1F` . Output IC50: < 100 nM

Input `N#CC1(NC(=O)c2ccc3oc(-c4cc(C(F)(F)F)c(F)c(O)c4F)nc3c2)CCC1` . Output IC50: < 100 nM

Input `Cn1nc(-c2cc(C(F)(F)F)c(F)c(O)c2F)c2cnc(N3CCOC4(CCS(=O)(=O)CC4)C3)cc21` . Output IC50: < 100 nM

Input `Cn1nc(-c2cc(C(F)(F)F)c(F)c(O)c2F)c2cnc(N3C4CCC3COC4)cc21` . Output IC50: < 100 nM

Input `CC(C)C1(O)CCN(c2ncc3c(-c4cc(C(F)(F)F)c(F)c(O)c4F)nn(C)c3n2)CC1` . Output IC50: < 100 nM

Input `Cn1nc(-c2cc(C(F)(F)F)c(F)c(O)c2F)c2cnc(N3CCOCC34CC4)cc21` . Output IC50: < 100 nM

Input `O=C(NC1CCCC1)c1ccc2oc(-c3cc(C(F)(F)F)c(F)c(O)c3F)nc2c1` . Output IC50: < 100 nM

###

# systemTested: Recombinant human HSD17B13 enzyme (Homo sapiens, UniProt Q7Z5P4)
# testName: HSD17b13 NAD(P)H-Glo biochemical assay
# measurementParameters: 50 uM estradiol, 1 mM NAD+, NAD(P)H-Glo luminescence; read-out: HSD17β13 IC50
pIC50: −log10 of the molar value.
quantityName: pIC50

Below, each entry is followed by its recorded pIC50 result.
[[record]]
compound = "CC(C)n1nc(-c2cc(C(F)(F)F)c(F)c(O)c2F)c2cnc(N3CCOCC34CC4)cc21"
systemtested = "Recombinant human HSD17B13 enzyme (Homo sapiens, UniProt Q7Z5P4)"
result = "> 7.00"

[[record]]
compound = "CN(CC1CCOCC1)c1cc2c(cn1)c(-c1cc(C(F)(F)F)c(F)c(O)c1F)nn2C"
systemtested = "Recombinant human HSD17B13 enzyme (Homo sapiens, UniProt Q7Z5P4)"
result = "> 7.00"

[[record]]
compound = "COC1CCCN(c2ncc3c(-c4cc(C(F)(F)F)c(F)c(O)c4F)nn(C)c3n2)C1 (centres unmarked)"
systemtested = "Recombinant human HSD17B13 enzyme (Homo sapiens, UniProt Q7Z5P4)"
result = "> 7.00"

[[record]]
compound = "Oc1cc(-c2n[nH]c3nc(N4CC5(CCOCC5)C4)cnc23)cc(C(F)(F)F)c1F"
systemtested = "Recombinant human HSD17B13 enzyme (Homo sapiens, UniProt Q7Z5P4)"
result = "6.00 to 7.00"

[[record]]
compound = "Cn1nc(-c2cc(C(F)(F)F)c(F)c(O)c2F)c2cnc(N3CC(C)(C#N)C3)cc21"
systemtested = "Recombinant human HSD17B13 enzyme (Homo sapiens, UniProt Q7Z5P4)"
result = "> 7.00"

[[record]]
compound = "CN1CCN(c2cc3c(cn2)c(-c2cc(C(F)(F)F)c(F)c(O)c2F)nn3C)C2(CCC2)C1"
systemtested = "Recombinant human HSD17B13 enzyme (Homo sapiens, UniProt Q7Z5P4)"
result = "> 7.00"


Input `CCN(c1cc2c(cn1)c(-c1cc(C(F)(F)F)c(F)c(O)c1F)nn2C)C1CCC1` . Output pIC50: > 7.00

Input `Cn1nc(-c2cc(C(F)(F)F)c(F)c(O)c2F)c2cc(F)c(N3CCOC4(CCC4)C3)nc21` . Output pIC50: > 7.00

Input `CS(=O)(=O)N1CC=C(c2ccc3c(-c4cc(O)c(F)c(C(F)(F)F)c4)n[nH]c3c2)CC1` . Output pIC50: 6.00 to 7.00

Input `Cn1nc(-c2cc(C(F)(F)F)c(F)c(O)c2F)c2cnc(N3CCOC4(CCC4)C3)cc21` . Output pIC50: > 7.00

Input `Cn1nc(-c2cc(C(F)(F)F)c(F)c(O)c2F)c2cnc(N3CCS(=O)(=O)CC3(C)C)cc21` . Output pIC50: 6.00 to 7.00

Input `O=C(c1ccc2oc(-c3cc(C(F)(F)F)c(F)c(O)c3F)nc2c1)N1CCC1` . Output pIC50: 6.00 to 7.00

Input `CC1(C#N)CN(c2ncc3c(-c4cc(O)c(F)c(C(F)(F)F)c4)n[nH]c3n2)C1` . Output pIC50: > 7.00

Input `CC(C)C(=O)NC1CCN(c2ncc3c(-c4cc(C(F)(F)F)c(F)c(O)c4F)nn(C)c3n2)CC1` . Output pIC50: > 7.00

Input `Cn1nc(-c2cc(C(F)(F)F)c(F)c(O)c2F)c2cnc(N3CCN(S(C)(=O)=O)CC3)cc21` . Output pIC50: > 7.00

Input `Cn1nc(-c2cc(C(F)(F)F)c(F)c(O)c2F)c2cnc(N3CCN(S(C)(=O)=O)C4(CCOCC4)C3)nc21` . Output pIC50: > 7.00

Input Cn1nc(-c2cc(C(F)(F)F)c(F)c(O)c2F)c2cnc(N3CCCC(c4ncccn4)C3)nc21 (centres unmarked) . Output pIC50: > 7.00

###

# pIC50 per record follows
# systemTested: Recombinant human HSD17B13 enzyme (Homo sapiens, UniProt Q7Z5P4)
# testName: HSD17b13 NAD(P)H-Glo biochemical assay
# measurementParameters: 50 uM estradiol, 1 mM NAD+, NAD(P)H-Glo luminescence; read-out: HSD17β13 IC50
pIC50: −log10 of the molar value.

Below, each entry is followed by its recorded pIC50 result.
[[record]]
compound = "CC(C)C1COCCN1c1cc2c(cn1)c(-c1cc(C(F)(F)F)c(F)c(O)c1F)nn2C (stereo not drawn)"
quantityname = "pIC50"
result = "> 7.00"

[[record]]
compound = "Cn1nc(-c2cc(C(F)(F)F)c(F)c(O)c2F)c2cnc(N3CCN(C(=O)Nc4ccccc4)CC3)nc21"
quantityname = "pIC50"
result = "> 7.00"

[[record]]
compound = "O=C(NC12CC(C1)C2)c1ccc2oc(-c3cc(O)c(F)c(C(F)(F)F)c3)nc2c1"
quantityname = "pIC50"
result = "> 7.00"

[[record]]
compound = "Cn1nc(-c2cc(C(F)(F)F)c(F)c(O)c2F)c2nnc(N3CCOCC34CC4)cc21"
quantityname = "pIC50"
result = "> 7.00"

[[record]]
compound = "Cn1nc(-c2cc(C(F)(F)F)c(F)c(O)c2F)c2cnc(N3CCC4(CCN4)CC3)nc21"
quantityname = "pIC50"
result = "6.00 to 7.00"


Next item in the queue.
Input `COCC1(NC(=O)c2ccc3oc(-c4cc(C(F)(F)F)c(F)c(O)c4F)nc3c2)CCC1` . Output pIC50: > 7.00
